ASSAY: Tmax in Sprague-Dawley rat at 50 mg/kg, po via gavage administered as a single dose measured upto 24 hrs by LC/MS/MS analysis
Type: ADME, organism-based
EXPERIMENTAL SETUP: in vivo
PARAMETER: Tmax (h)
Write the number in h without appending the unit.

// recorded Tmax for C/C(=N\NC(=N)N)c1sc(-c2ccc(C#CCCN3CCC3)cc2)nc1C : 1

###

Tested on: Escherichia coli
ASSAY: Antimicrobial activity against Escherichia coli JW55031 harboring deltatolC mutant by broth liquid microdilution method
Format: functional
Please go through the items and note down their MIC.
Write the number in µg/mL without appending the unit.

// recorded MIC for C/C(=N\NC(=N)N)c1sc(-c2ccc(OCCCN3CCSCC3)cc2)nc1C : 64

// recorded MIC for C/C(=N\NC(=N)N)c1sc(-c2ccc(C#CCCN3CCCCC3C)cc2)nc1C (configuration not stated) : 32

// recorded MIC for C/C(=N\NC(=N)N)c1sc(-c2ccc(OCCCN3CCCC3)cc2)nc1C : 32

// recorded MIC for C/C(=N\NC(=N)N)c1sc(-c2ccc(OCCCCn3ccnc3)cc2)nc1C : 32

// recorded MIC for C/C(=N\NC(=N)N)c1sc(-c2ccc(OCCCCCN3CCCC(C)C3)cc2)nc1C (configuration not stated) : 64

// recorded MIC for C/C(=N\NC(=N)N)c1sc(-c2ccc(OCCCCCN3CCOCC3)cc2)nc1C : 32

// recorded MIC for C/C(=N\NC(=N)N)c1sc(-c2ccc(OCCCCCN3CCC3)cc2)nc1C : 64

// recorded MIC for C/C(=N\NC(=N)N)c1sc(-c2ccc(C#CCCn3ccnc3)cc2)nc1C : 16

// recorded MIC for C/C(=N\NC(=N)N)c1sc(-c2ccc(C#CCCN3CCSCC3)cc2)nc1C : 16
